target: Recombinant ROCK2 (amino acids 5-554) (Homo sapiens); construct: ROCK2 (amino acids 5-554); by word order, ROCK2 from SignalChem; assay: ROCK inhibition assay, LANCE Ultra TR-FRET kinase assay (ROCK2); conditions: 4 μM ATP, 50 nM ULight-CREBtide substrate
Measure Name: IC50

{"columns": ["Compound", "Experimental System", "IC50"],
 "data": [
  ["COc1cccc(Cn2ccc3cc(-c4ccnc(N)c4)ccc3c2=O)c1", "Recombinant ROCK2 (amino acids 5-554) (Homo sapiens)", "10 to 100 nM"],
  ["C[C@H](c1cccc(C(=O)NCCO)c1)n1cnc2cc(-c3cn[nH]c3C(F)(F)F)ccc2c1=O", "Recombinant ROCK2 (amino acids 5-554) (Homo sapiens)", "10 to 100 nM"],
  ["COc1cccc(Cn2ccc3cc(-c4ccnn4C)ccc3c2=O)c1", "Recombinant ROCK2 (amino acids 5-554) (Homo sapiens)", "< 10 nM"]
]}

Identify measured IC50 corresponding to Cc1nocc1-c1ccc2c(=O)n(C(CO)c3cccc(Cl)c3)cnc2c1 (stereo not shown)
10 to 100 nM

Identify measured IC50 corresponding to CNC(=O)c1cc(F)cc(Cn2ccc3cc(-c4ccnc(N)c4)ncc3c2=O)c1
10 to 100 nM

Identify measured IC50 corresponding to O=C(NCc1ccc(F)nc1)c1cccc(Cn2ccc3cc(-c4c[nH]nc4C(F)(F)F)ccc3c2=O)c1
< 10 nM

Identify measured IC50 corresponding to CNC(=O)c1cc(Cl)cc(Cn2ccc3cc(-c4conc4C)ccc3c2=O)c1
10 to 100 nM

Identify measured IC50 corresponding to Cn1nccc1-c1ccc2c(=O)n(Cc3cccc(C(=O)N[C@H]4CC[C@@H](O)CC4)c3)ccc2c1
10 to 100 nM

Identify measured IC50 corresponding to O=C(NC1CCN(C2COC2)CC1)c1cccc(Cn2ccc3cc(-c4c[nH]nc4C(F)(F)F)ccc3c2=O)c1
< 10 nM

Identify measured IC50 corresponding to COc1cccc(Cn2cnc3cc(-c4c[nH]nc4C(F)F)ccc3c2=O)c1
< 10 nM

Identify measured IC50 corresponding to CC(C)N1CCC(NC(=O)c2cc(F)cc(Cn3ccc4cc(-c5ccnn5C)ccc4c3=O)c2)CC1
10 to 100 nM

Identify measured IC50 corresponding to Cc1nocc1-c1ccc2c(=O)n(Cc3cccc(NC(=O)C4COC4)c3)ccc2c1
10 to 100 nM

###

biological target: Recombinant ROCK2 (amino acids 5-554) (Homo sapiens, UniProt O75116); construct: ROCK2 (amino acids 5-554); by word order, ROCK2 from SignalChem; experiment: ROCK inhibition assay, LANCE Ultra TR-FRET kinase assay (ROCK2); settings: 4 μM ATP, 50 nM ULight-CREBtide substrate
Sequence (O75116 5-554): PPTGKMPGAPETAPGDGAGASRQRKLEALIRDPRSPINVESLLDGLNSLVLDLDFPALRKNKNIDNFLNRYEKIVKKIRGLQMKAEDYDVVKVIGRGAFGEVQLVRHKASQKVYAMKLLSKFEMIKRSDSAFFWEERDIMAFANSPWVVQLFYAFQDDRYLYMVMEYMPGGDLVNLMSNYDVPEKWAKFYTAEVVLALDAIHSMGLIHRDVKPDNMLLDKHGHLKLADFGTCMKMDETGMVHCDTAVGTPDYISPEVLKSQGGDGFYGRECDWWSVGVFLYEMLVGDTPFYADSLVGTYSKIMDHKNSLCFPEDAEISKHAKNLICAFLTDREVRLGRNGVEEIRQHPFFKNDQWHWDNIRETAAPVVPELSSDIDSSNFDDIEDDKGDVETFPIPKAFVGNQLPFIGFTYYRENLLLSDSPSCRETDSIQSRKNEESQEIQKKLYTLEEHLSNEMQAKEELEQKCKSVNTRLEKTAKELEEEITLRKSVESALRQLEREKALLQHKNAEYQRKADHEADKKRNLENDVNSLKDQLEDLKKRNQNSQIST
Listed next: entries and their corresponding IC50.

// worked examples, IC50 included
{"columns": ["Compound", "Experimental Value"],
 "data": [
  ["Cn1nccc1-c1ccc2c(=O)n(Cc3cccc(C(=O)N[C@H]4CC[C@H](O)CC4)c3)ccc2c1 [Compound 115]", "10 to 100 nM"],
  ["Cc1nocc1-c1ccc2c(=O)n(Cc3cc(F)cc(C(=O)Nc4nc5c(s4)CCNC5)c3)ccc2c1 [Compound 157]", "< 10 nM"],
  ["CNC(=O)c1cccc(Cn2cc(CC(C)O)c3cc(-c4c[nH]nc4N)ccc3c2=O)c1 (stereo not drawn) [Compound 562]", "< 10 nM"],
  ["C[C@H](c1cccc(C(=O)NCCO)c1)n1cnc2cc(-c3ccnn3C)ccc2c1=O [Compound 480]", "10 to 100 nM"],
  ["Cc1n[nH]cc1-c1ccc2c(=O)n(Cc3cccc(C(=O)Nc4cccc(S(N)(=O)=O)c4)c3)ccc2c1 [Compound 34]", "100 to 500 nM"]
]}

Identify measured IC50 corresponding to CNC(=O)c1cccc([C@@H](C)n2cnc3cc(-c4cn[nH]c4C(F)F)ccc3c2=O)c1 [Compound 457]
< 10 nM

###

biological target: Recombinant ROCK1 (amino acids 1-477) (Homo sapiens); construct: Recombinant ROCK1 (amino acids 1-477); by word order, ROCK1 from Carna Biosciences; test: ROCK inhibition assay, LANCE Ultra TR-FRET kinase assay (ROCK1); details: 1 μM ATP, 50 nM ULight-CREBtide substrate
pIC50: −log10 of the molar value.
Listed next: entries and their corresponding pIC50.

// worked examples, pIC50 included
{"columns": ["Molecule", "pIC50"],
 "data": [
  ["Cn1nccc1-c1ccc2c(=O)n(Cc3cccc(C(=O)Nc4ccc5c(c4)CN(C4CC4)CC5)c3)ccc2c1 [Compound 126]", "7.00 to 7.96"],
  ["Cc1nocc1-c1ccc2c(=O)n(Cc3cc(F)cc(C(=O)Nc4ccc5c(c4)CNCC5)c3)ccc2c1 [Compound 160]", "7.00 to 7.96"],
  ["Cc1n[nH]cc1-c1ccc2c(=O)n(Cc3cccc(C(=O)Nc4ccccc4OC(F)(F)F)c3)ccc2c1 [Compound 38]", "< 6.30"],
  ["CNC(=O)c1cccc([C@@H](C)n2cnc3cc(-c4cn[nH]c4C(F)F)ccc3c2=O)c1 [Compound 457]", "7.00 to 7.96"],
  ["Cc1nocc1-c1ccc2c(=O)n(C(CN)c3cccc(Cl)c3)cnc2c1 (centres unmarked) [Compound 497]", "7.00 to 7.96"]
]}

Identify measured pIC50 corresponding to [2H]C([2H])([2H])NC(=O)c1cccc([C@@H](C)n2cnc3cc(-c4cn[nH]c4C(F)F)ccc3c2=O)c1 [Compound 458]
7.00 to 7.96

Identify measured pIC50 corresponding to CC(C)N1CCC(NC(=O)c2cccc(Cn3ccc4cc(-c5ccnn5C)ccc4c3=O)c2)CC1 [Compound 118]
6.30 to 7.00

Identify measured pIC50 corresponding to O=C(NCC1COC1)c1cc(F)cc(Cn2ccc3cc(-c4c[nH]nc4C(F)(F)F)ncc3c2=O)c1 [Compound 258]
7.00 to 7.96

Identify measured pIC50 corresponding to CC(C)NC(=O)c1cccc(Cn2cnc3cc(-c4cn[nH]c4C(F)(F)F)ccc3c2=O)c1 [Compound 369]
7.00 to 7.96

Identify measured pIC50 corresponding to [2H]C([2H])([2H])NC(=O)c1cccc(Cn2ccc3cc(-c4cn[nH]c4Cl)ccc3c2=O)c1 [Compound 291]
7.00 to 7.96

###

Biological target: Recombinant ROCK1 (amino acids 1-477) (Homo sapiens, UniProt Q13464)
Construct: Recombinant ROCK1 (amino acids 1-477); by word order, ROCK1 from Carna Biosciences
Sequence (Q13464 1-477): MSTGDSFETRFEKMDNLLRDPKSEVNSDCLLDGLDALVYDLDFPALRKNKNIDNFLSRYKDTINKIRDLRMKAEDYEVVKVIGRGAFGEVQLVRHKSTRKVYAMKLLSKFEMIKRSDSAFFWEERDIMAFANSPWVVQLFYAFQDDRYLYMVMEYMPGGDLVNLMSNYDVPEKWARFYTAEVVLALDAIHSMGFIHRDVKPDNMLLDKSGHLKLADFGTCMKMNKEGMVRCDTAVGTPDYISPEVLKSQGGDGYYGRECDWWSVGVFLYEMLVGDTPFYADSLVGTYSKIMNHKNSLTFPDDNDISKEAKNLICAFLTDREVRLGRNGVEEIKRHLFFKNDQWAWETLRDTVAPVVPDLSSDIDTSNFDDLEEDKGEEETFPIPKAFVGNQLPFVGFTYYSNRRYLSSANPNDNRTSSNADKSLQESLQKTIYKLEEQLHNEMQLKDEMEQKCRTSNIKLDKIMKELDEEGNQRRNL
Assay: ROCK inhibition assay, LANCE Ultra TR-FRET kinase assay (ROCK1)
Conditions: 1 μM ATP, 50 nM ULight-CREBtide substrate
Method: Kinase IC50 was determined through an in vitro assay based on LANCE Ultra TR-FRET (Time-Resolved Fluorescence Resonance Energy Transfer) homogeneous technologies method (Perkin Elmer). […] Compound activities were measured by Envision and IC50s were calculated. […] The reaction was incubated for 1 hour, and the signal was read in Envision in TR-FRET mode (excitation at 320 nm and emission at 615/665 nm). […]
pIC50: −log10 of the molar value.
Listed next: entries and their corresponding pIC50.

{"columns": ["Molecule", "pIC50"],
 "data": [
  ["CN1CCC(CNC(=O)c2cccc(Cn3ccc4cc(N5CCOCC5)ccc4c3=O)c2)CC1", "6.30 to 7.00"]
]}

Identify measured pIC50 corresponding to [2H]C([2H])([2H])NC(=O)c1cccc([C@@H](C)n2cnc3cc(-c4cn[nH]c4N)ccc3c2=O)c1
7.00 to 7.96

Identify measured pIC50 corresponding to Cc1nocc1-c1ccc2c(=O)n(Cc3cccc(C(=O)NC(C)C)c3)cnc2c1
6.30 to 7.00

Identify measured pIC50 corresponding to CS(=O)(=O)c1cccc(CNC(=O)c2cccc(Cn3cnc4cc(-c5cn[nH]c5C(F)F)ccc4c3=O)c2)c1
6.30 to 7.00

Identify measured pIC50 corresponding to O=C(NCC1CCOCC1)c1cccc(Cn2cnc3cc(-c4cn[nH]c4C(F)F)ccc3c2=O)c1
7.00 to 7.96

Identify measured pIC50 corresponding to COc1cccc(Cn2cnc3cc(-c4c[nH]nc4C(F)F)ccc3c2=O)c1
7.00 to 7.96

Identify measured pIC50 corresponding to Nc1cc(-c2ccc3c(=O)n(Cc4cccc(C(=O)NC5CCOCC5)c4)cnc3c2)ccn1
6.30 to 7.00

Identify measured pIC50 corresponding to Nc1cc(-c2ccc3c(=O)n(Cc4cccc(C(=O)NCCc5ccccc5)c4)ccc3c2)ccn1
6.30 to 7.00

Identify measured pIC50 corresponding to COc1cccc(Cn2ccc3cc(-c4c[nH]nc4C(F)(F)F)ccc3c2=O)c1
7.00 to 7.96

Identify measured pIC50 corresponding to O=C(NCc1ccccc1)c1cccc(Cn2ccc3cc(-c4cn[nH]c4)ccc3c2=O)c1
< 6.30

Identify measured pIC50 corresponding to Nc1cc(-c2ccc3c(=O)n(Cc4cccc(C(=O)NCCc5ccccn5)c4)cnc3c2)ccn1
7.00 to 7.96

Identify measured pIC50 corresponding to O=c1c2ccc(-c3cn[nH]c3Cl)cc2ncn1C(CO)c1cccc(Cl)c1 (centres unmarked)
7.00 to 7.96

Identify measured pIC50 corresponding to O=C(NC1CC1)c1cc(F)cc(Cn2ccc3cc(-c4c[nH]nc4C(F)(F)F)ccc3c2=O)c1
6.30 to 7.00

Identify measured pIC50 corresponding to CN1CCC(CNC(=O)c2cccc(Cn3cnc4cc(-c5cn[nH]c5C(F)F)ccc4c3=O)c2)CC1
> 8.00

Identify measured pIC50 corresponding to O=C(NCC1CCOCC1)c1cccc(Cn2ccc3cc(-c4c[nH]nc4C(F)F)ccc3c2=O)c1
7.00 to 7.96

Identify measured pIC50 corresponding to CN1CCC(NC(=O)c2cccc(Cn3cnc4cc(-c5cn[nH]c5Cl)ccc4c3=O)c2)CC1
> 8.00

Identify measured pIC50 corresponding to CNC(=O)c1cccc(Cn2cc(C(C)O)c3cc(-c4ccnn4C)ccc3c2=O)c1 (centres unmarked)
7.00 to 7.96

Identify measured pIC50 corresponding to CNC(=O)c1cc(F)cc(Cn2ccc3cc(-c4ccnn4C)ccc3c2=O)c1
6.30 to 7.00

Identify measured pIC50 corresponding to O=C(NC1CCNCC1)c1cccc(Cn2ccc3cc(-c4c[nH]nc4C(F)(F)F)ccc3c2=O)c1
> 8.00

Ref: patent US12064426B2
